Reported protein stability index by item:
B1: HMOX1 (parent)
chain: YHIYVALEEEIERNKESPVFAPVY

Variants of: B1
measurementDescription: protein stability index of a GFP-peptide fusion (GPS, HEK-293T) (PSI 1-6); higher = more stable;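 also: lentivirally expressed fusions sorted by FACS into six bins by GFP to DsRed ratio, PSI derived from sequencing read proportions per bin multiplied by bin number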
particulars: c terminus: a fixed tail appended
Keep the answer to the number alone.

Example entries begin here.
YHIYEALEEEIERNKESPVFAPVY [V5E]	4.87
MHIYVALEEEIERNKESPVFAPVY [Y1M]	2.35
YHQYVALEEEIERNKESPVFAPVY [I3Q]	2.27
YHIYYALEEEIERNKESPVFAPVY [V5Y]	1.47
YHIYVALEEEIERNKESPVFAPVI [Y24I]	2.49
YHIYVALESEIERNKESPVFAPVY [E9S]	1.87
YHIYVALEEEIERNKESPVFAPVK [Y24K]	2.69
YHIYVALEEECERNKESPVFAPVY [I11C]	2.46

I have this variant here, YHIYVALEEEIERNKKSPVFAPVY [E16K] , and I need its recorded protein stability index.
2.13

Quick one: protein stability index of YHIYVAPEEEIERNKESPVFAPVY [L7P] ?
1.59

Which protein stability index reading was recorded for the variant YHCYVALEEEIERNKESPVFAPVY [I3C] ?
3.57

What protein stability index value was documented for this variant, YHIYVALEEEIHRNKESPVFAPVY [E12H] ?
1.58

Which value of protein stability index has been reported for YHIYVALEPEIERNKESPVFAPVY [E9P] in the records?
2.6

Returns the measured protein stability index for the input variant. Input: YHIYVALEEEIERNKESCVFAPVY [P18C]
1.85

State the recorded protein stability index for this entry: YHIYSALEEEIERNKESPVFAPVY [V5S]
2.67

Reported protein stability index for YHIYVALEEEIERNKESPVFAPTY [V23T] : what is it?
1.83
